Target desc: High affinity nerve growth factor receptor (Homo sapiens);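 further: each value is a mean of replicate percent inhibition readings against TRKA kinase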
Condition: at 0.1 µM
Examples of compounds with documented inhibition follow.
Endpoint: inhibition (%)

[[record]]
line_notation = "Nc1nccc(C#Cc2cncnc2Nc2ccc(OCc3cccc(F)c3)c(Cl)c2)n1"
target_desc = "High affinity nerve growth factor receptor (Homo sapiens)"
value_unit = "%"
reported_result = 4.45

[[record]]
line_notation = "O=C1Nc2ccccc2/C1=C/Nc1ccc2[nH]c(=O)[nH]c2c1"
target_desc = "High affinity nerve growth factor receptor (Homo sapiens)"
value_unit = "%"
reported_result = 11.6

[[record]]
line_notation = "COc1cc(Nc2nccc(-c3cnn4ncccc34)n2)cc(OC)c1"
target_desc = "High affinity nerve growth factor receptor (Homo sapiens)"
value_unit = "%"
reported_result = 0.98

[[record]]
line_notation = "Oc1cccc(-c2nc(-c3ccccc3)[nH]c2-c2ccncc2)c1"
target_desc = "High affinity nerve growth factor receptor (Homo sapiens)"
value_unit = "%"
reported_result = 3.43

[[record]]
line_notation = "ON=C1CCc2cc(-c3nc(C4CCNCC4)[nH]c3-c3ccncc3)ccc21"
target_desc = "High affinity nerve growth factor receptor (Homo sapiens)"
value_unit = "%"
reported_result = -3.45

[[record]]
line_notation = "Cc1cc(-c2ccccn2)cc(C)c1/C=C/c1cncc(-c2nn[nH]n2)c1"
target_desc = "High affinity nerve growth factor receptor (Homo sapiens)"
value_unit = "%"
reported_result = 2.23

[[record]]
line_notation = "Nc1nccc(-c2c(-c3ccc(F)cc3)ncn2CCCN2CCOCC2)n1"
target_desc = "High affinity nerve growth factor receptor (Homo sapiens)"
value_unit = "%"
reported_result = -0.29

[[record]]
line_notation = "CN(C)CCCn1c(-c2nonc2N)nc2cnccc21"
target_desc = "High affinity nerve growth factor receptor (Homo sapiens)"
value_unit = "%"
reported_result = 1.3

[[record]]
line_notation = "C[C@@H](Oc1cc(-n2cnc3ccc(OC[C@@H](O)CO)cc32)sc1C(N)=O)c1ccccc1Cl"
target_desc = "High affinity nerve growth factor receptor (Homo sapiens)"
value_unit = "%"
reported_result = 0.33

[[record]]
line_notation = "Cc1ccc2c(c1)/C(=N/Nc1ccc(S(N)(=O)=O)cc1)C(=O)N2"
target_desc = "High affinity nerve growth factor receptor (Homo sapiens)"
value_unit = "%"
reported_result = -1.8

